Taken from PubChem BioAssay (NCI).

Test system: HCC-2998 colon
TEST NAME: NCI-60 one-dose screen, 48 h (100 = growth as untreated, 0 = no growth, -100 = all killed)
CONDITION: 10 µM unless noted
About 83,000 compounds went through this panel and 20% of them were active in at least one assay; those are over-represented in the sample as a whole.
Provide the reported growth of each item.
Numbers only, in %.

COMPOUND: CCCCCCCC(=O)OCC/C=C/C1OC1C1OC(=O)/C=C\C=C\c2nc(oc2C)/C=C(/C)CCC2OC2C1OC(=O)NC(C)=O (configuration not stated)
METRIC: growth
UNIT SPEC: %
OBSERVED VALUE: -92.8
--
COMPOUND: ClCCN(CCCl)c1nc(Cl)c(C2CC(c3ccccc3)=NN2c2ccccc2)s1 (configuration not stated)
METRIC: growth
UNIT SPEC: %
OBSERVED VALUE: 110
--
COMPOUND: CC1=C(SCCC(=O)OCC(=O)NCCC[Te]c2ccccc2)C(=O)c2ccccc2C1=O
METRIC: growth
UNIT SPEC: %
OBSERVED VALUE: 10.1
--
COMPOUND: O=c1cc[nH]c(=O)o1
METRIC: growth
UNIT SPEC: %
OBSERVED VALUE: 116
--
COMPOUND: Nc1c(Br)cc([N+](=O)[O-])cc1[N+](=O)[O-]
METRIC: growth
UNIT SPEC: %
OBSERVED VALUE: 102

Could I get growth for every one of these entries?
1. O=[N+]([O-])c1cccc([As]=[As]c2cccc([N+](=O)[O-])c2)c1 (configuration not stated)
2. CCCCCN(CCCCC)CC(O)c1ccc(C)c(Cl)c1 (configuration not stated)

output:
1: -90.6; 2: 107
